Each recorded value in this set is attributed to the RNAGym collection of RNA variant scans (doi:10.7554/elife.90254).

B1: OR4K15 (parent)
chain: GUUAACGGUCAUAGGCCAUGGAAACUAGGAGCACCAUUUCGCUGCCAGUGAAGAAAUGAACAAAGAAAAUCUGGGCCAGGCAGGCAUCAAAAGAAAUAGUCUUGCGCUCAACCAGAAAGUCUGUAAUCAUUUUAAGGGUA

Variants of: B1
Assay: self-cleavage, relative activity (ratio to wild type); higher = more cleavage; in vitro, sequencing; the parent is a self-cleaving ribozyme
# self-cleavage per entry
The reply should be a number, written without any unit.

Field: example entries. Status: answers known.
{"biosequence": "GUUAACGGUCAUAGGCCAUGGAAACUAGGAGCACCAUUUCGCUGCCAGUGAAGAAAUGAACAAAGAAAAUCUGGGCCAGGCAGGCAUCAAAAGAAAUAGUCUUGCGCUCAACCAGAAAGUCUGUAAUCAUUUUAAUGGUA [G136U]", "self-cleavage": 1.07}
{"biosequence": "GUUAACGGUCAUAGGCCAUGGAAACUAGGAGCACCAUUUCGCUGCCAGUGAAGAAAUGAACAAAGAAACUCUGGGCCAGGCAGGCAUCAAAAGAAAUAGUCUUGCGCUCAACCAGAAAGUCUGUAAUCAUUCUAAGGGUA [A69C U132C]", "self-cleavage": 2.58}
{"biosequence": "GUUAACGGUCAUAGGCCAUGGAAACUAGGAGCACCAUUUCGCUGCCAGUGAAGAAAUGAACAAUGAAAAUCUGGGCCAGGCGGGCAUCAAAAGAAAUAGUCUUGCGCUCAACCAGAAAGUCUGUAAUCAUUUUAAGGGUA [A64U A82G]", "self-cleavage": 0.71}
{"biosequence": "GUUAACGGUCCUAGGCCAUGGAAACUAGGAGCACCAUUUCGCUGCCAGCGAAGAAAUGAACAAAGAAAAUCUGGGCCAGGCAGGCAUCAAAAGAAAUAGUCUUGCGCUCAACCAGAAAGUCUGUAAUCAUUUUAAGGGUA [A11C U49C]", "self-cleavage": 1.57}

self-cleavage recorded for this variant, GUUAACGGUCAUAGGCCAUGGAAACUAGGAGCACCAUUUCGCUGCCAGUGAAGAAAUGAACAAAGAAAAUCUGGGCCAGGCAGGCAUCAAAAGGAAUAGUCCUGCGCUCAACCAGAAAGUCUGUAAUCAUUUUAAGGGUA [A94G U102C] , is 1.87

self-cleavage recorded for this variant, GUUAACGGUCAUAGGCCAUGGAAACUAGGAGCACCAUUUCGCUGCCAGUGAAGAAAUGAACAAAGAAGAUCUGGGCCAGGCAGGCAUCAAAAGAAAUAGUCAUGCGCUCAACCAGAAAGUCUGUAAUCAUUUUAAGGGUA [A68G U102A] , is 0.85
